Value source: patent US9249147B2

Target: CYP2C9 (Homo sapiens)
Construct: purchased Cerep (contract assay, ADMET Study 13170)
Sequence (P11712 whole entry): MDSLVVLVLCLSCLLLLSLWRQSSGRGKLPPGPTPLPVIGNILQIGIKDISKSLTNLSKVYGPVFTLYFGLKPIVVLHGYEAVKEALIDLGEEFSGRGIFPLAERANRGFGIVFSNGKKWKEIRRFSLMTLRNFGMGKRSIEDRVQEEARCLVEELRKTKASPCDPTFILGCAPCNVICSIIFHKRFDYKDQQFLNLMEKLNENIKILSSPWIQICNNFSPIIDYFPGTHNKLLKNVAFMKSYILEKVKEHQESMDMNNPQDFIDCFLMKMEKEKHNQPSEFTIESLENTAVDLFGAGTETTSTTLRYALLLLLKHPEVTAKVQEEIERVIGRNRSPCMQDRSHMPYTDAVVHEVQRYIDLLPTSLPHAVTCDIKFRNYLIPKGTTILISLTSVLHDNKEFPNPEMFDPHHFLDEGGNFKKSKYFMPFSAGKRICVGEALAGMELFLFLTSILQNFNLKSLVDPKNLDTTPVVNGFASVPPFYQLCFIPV
Experiment: CYP2C9 Inhibition (recombinant, MFC substrate)
Format: in vitro ADME
Details: human, recombinant CYP2C9, probe MFC, 1.0E−06 M; Table 5B individual results; read-out: CYP2C9 % Inhibition of Control Values, 1st/2nd/3rd
Measured quantity: activity at 1 µM (%)
The response must be a number in % with no trailing unit.

Documented activity at 1 µM of "Cc1ccc(F)cc1C[C@H](C)Nc1cc[nH]c(=O)c1-c1nc2cc3c(cc2[nH]1)C(=O)N(CCN1CCCC1)C3" : 75.8

---

Target: IRK (Homo sapiens, UniProt P06213)
Construct: 6×His- or GST-tagged kinase domain fragments of the corresponding RTKs expressed in baculovirus system; host or cells: baculovirus system
Sequence (P06213 1023-1298 limits assumed): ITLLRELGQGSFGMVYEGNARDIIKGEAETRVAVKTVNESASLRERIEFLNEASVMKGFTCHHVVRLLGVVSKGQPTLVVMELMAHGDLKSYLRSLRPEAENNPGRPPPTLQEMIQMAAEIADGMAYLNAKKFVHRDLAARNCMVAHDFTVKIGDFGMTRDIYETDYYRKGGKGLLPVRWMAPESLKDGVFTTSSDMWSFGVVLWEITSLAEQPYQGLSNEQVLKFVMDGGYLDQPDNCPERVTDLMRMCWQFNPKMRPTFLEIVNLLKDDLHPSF
Test: IRK (insulin receptor kinase) assay
Format: biochemical
Details: Table 1; read-out: IRK IC50
Measured quantity: IC50

Compound: C[C@@H](Cc1cc(F)cc(F)c1F)Nc1cc[nH]c(=O)c1-c1nc2cc3c(cc2[nH]1)CN(CCN1CCCC1)C3=O [drawing 327]
Test target: IRK (Homo sapiens, UniProt P06213)
IC50: 250 to 1000 nM
//
Compound: O=C1NC(=O)c2cc3[nH]c(-c4c(NC[C@@H](O)c5cccc(Cl)c5)cc[nH]c4=O)nc3cc21
Test target: IRK (Homo sapiens, UniProt P06213)
IC50: > 1000 nM
//
Compound: CC(Cc1cccs1)N(C)c1cc[nH]c(=O)c1-c1nc2cc3c(cc2[nH]1)C(=O)N(CCCN1CCCC1)C3 (stereo not shown)
Test target: IRK (Homo sapiens, UniProt P06213)
IC50: > 1000 nM
//
Compound: C[C@@H](Cc1cc(F)cc(F)c1F)Nc1cc[nH]c(=O)c1-c1nc2cc3c(cc2[nH]1)CN(CCN(C)C)C3=O [drawing 325]
Test target: IRK (Homo sapiens, UniProt P06213)
IC50: 250 to 1000 nM
//
Compound: Cc1ccc(N(C)C)cc1C[C@H](C)Nc1cc[nH]c(=O)c1-c1nc2cc3c(cc2[nH]1)CN(CCN1CCCC1)C3=O
Test target: IRK (Homo sapiens, UniProt P06213)
IC50: > 1000 nM

Measured IC50, "C[C@@H](Cc1cc(F)cc(F)c1F)Nc1cc[nH]c(=O)c1-c1nc2cc3c(cc2[nH]1)CN(CCN1CCOCC1)C3=O" : > 1000 nM

For record "CCc1ccccc1C[C@H](C)Nc1cc[nH]c(=O)c1-c1nc2cc3c(cc2[nH]1)CN(CCN1CCCC1)C3=O" the listed IC50 is 250 to 1000 nM

---

Target: IRK (Homo sapiens, UniProt P06213)
Construct: 6×His- or GST-tagged kinase domain fragments of the corresponding RTKs expressed in baculovirus system; host or cells: baculovirus system
Assay: IRK (insulin receptor kinase) assay
Assay type: biochemical
Conditions: Table 1; read-out: IRK IC50
# key: entry, value: IC50

Molecule: CC(Cc1cccs1)Nc1cc[nH]c(=O)c1-c1nc2cc3c(cc2[nH]1)C(=O)N(C1CCN(C)CC1)C3=O (stereo not drawn)
IC50: > 1000 nM
//
Molecule: COc1cc(F)c(F)c(C[C@H](C)Nc2cc[nH]c(=O)c2-c2nc3cc4c(cc3[nH]2)CN(CCN2CCCC2)C4=O)c1OC
IC50: 250 to 1000 nM
//
Molecule: C[C@H](Cc1cccs1)Nc1cc[nH]c(=O)c1-c1nc2c(Cl)c3c(cc2[nH]1)C(=O)N(C1CCN(C)CC1)C3=O
IC50: > 1000 nM
//
Molecule: CC(Cc1cccs1)Nc1cc[nH]c(=O)c1-c1nc2cc3c(cc2[nH]1)C(=O)N(CCCN1CCCC1)C3=O (stereo not drawn)
IC50: > 1000 nM
//
Molecule: C[C@@H](Cc1cc(F)ccc1Br)Nc1cc[nH]c(=O)c1-c1nc2cc3c(cc2[nH]1)CN(CCN1CCCC1)C3=O [drawing 330]
IC50: 100 to 250 nM

Entry "CCS(=O)(=O)CCN1CCC(N2Cc3cc4nc(-c5c(N[C@@H](C)Cc6cccs6)cc[nH]c5=O)[nH]c4cc3C2=O)CC1" ; IC50 = 100 to 250 nM

// recorded IC50 for "COc1ccc(F)cc1C[C@H](C)Nc1cc[nH]c(=O)c1-c1nc2cc3c(cc2[nH]1)CN(CCN1CCCC1)C3=O" : 250 to 1000 nM

// recorded IC50 for "COc1ccc(F)cc1C[C@H](C)Nc1cc[nH]c(=O)c1-c1nc2cc3c(cc2[nH]1)CN(CCN(C)C)C3=O" : 250 to 1000 nM

---

Molecular target: ALK (Homo sapiens, UniProt Q9UM73)
Sequence (Q9UM73 with tags, fused parts or gaps): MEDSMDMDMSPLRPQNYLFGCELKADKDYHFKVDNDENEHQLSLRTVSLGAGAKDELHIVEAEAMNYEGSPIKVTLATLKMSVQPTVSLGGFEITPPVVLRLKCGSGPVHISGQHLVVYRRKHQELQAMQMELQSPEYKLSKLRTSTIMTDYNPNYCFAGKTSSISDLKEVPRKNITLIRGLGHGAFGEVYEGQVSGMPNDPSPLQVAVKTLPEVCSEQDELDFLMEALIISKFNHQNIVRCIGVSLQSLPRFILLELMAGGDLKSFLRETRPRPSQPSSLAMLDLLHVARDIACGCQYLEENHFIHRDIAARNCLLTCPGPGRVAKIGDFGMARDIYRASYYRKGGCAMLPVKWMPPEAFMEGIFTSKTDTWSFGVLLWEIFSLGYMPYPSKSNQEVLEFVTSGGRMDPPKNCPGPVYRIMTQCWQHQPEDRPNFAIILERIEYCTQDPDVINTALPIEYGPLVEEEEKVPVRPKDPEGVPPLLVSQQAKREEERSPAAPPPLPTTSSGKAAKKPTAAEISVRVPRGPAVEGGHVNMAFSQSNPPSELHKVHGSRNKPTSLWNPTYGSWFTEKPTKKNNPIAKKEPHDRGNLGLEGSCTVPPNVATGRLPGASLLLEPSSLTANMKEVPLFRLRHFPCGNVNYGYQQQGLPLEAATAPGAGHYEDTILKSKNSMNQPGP
Assay: ALK kinase assay (Kinase-Glo / AlphaScreen, purified NPM-ALK);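 note: recombinant baculovirus-expressed ALK kinase domain, activity read either as leftover ATP by Kinase-Glo luminescence or as poly(Glu-Tyr) phosphorylation by anti-phosphotyrosine AlphaScreen proximity signal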
Assay type: biochemical
Design: fused to the complete intracytoplasmic portion of ALK containing the functional tyrosine kinase domain; 6xHis; made in house; host or cells: insect cells; the other entry of the earlier key: NPM1 (P06748, Nucleophosmin)
Conditions: Table 1; read-out: ALK IC50
Measured IC50 of individual entries

Example cases with answers are listed next.
Compound: Cc1c(C[C@H](C)Nc2cc[nH]c(=O)c2-c2nc3cc4c(cc3[nH]2)CN(CCN2CCCC2)C4=O)ccc(F)c1F
Result: > 1000 nM
//
Compound: Cc1cc(CC(C)Nc2cc[nH]c(=O)c2-c2nc3cc4c(cc3[nH]2)C(=O)N(CCCN2CCCC2)C4)sc1C (stereo not shown)
Result: > 1000 nM
//
Compound: C[C@@H](Cc1c(F)c(F)cc(F)c1F)Nc1cc[nH]c(=O)c1-c1nc2cc3c(cc2[nH]1)CN(CCN1CCCC1)C3=O [drawing 345]
Result: < 10 nM
//
Compound: C[C@@H]1CCCN1CCN1Cc2cc3[nH]c(-c4c(N[C@@H](C)Cc5cc(F)cc(F)c5F)cc[nH]c4=O)nc3cc2C1=O [drawing 340]
Result: < 10 nM
//
Compound: Cc1ccsc1C[C@H](C)Nc1cc[nH]c(=O)c1-c1nc2cc3c(cc2[nH]1)CN(CCN1CCC[C@@H]1C)C3=O
Result: 100 to 250 nM
//
Compound: CC(Cc1cccs1)N(C)c1cc[nH]c(=O)c1-c1nc2cc3c(cc2[nH]1)C(=O)N(CCCN1CCCC1)C3 (stereo not shown)
Result: > 1000 nM

Would you kindly look at the next entry?
Reported IC50 ( Cc1ccc(F)cc1C[C@H](C)Nc1cc[nH]c(=O)c1-c1nc2cc3c(cc2[nH]1)C(=O)N(CCN1CCCC1)C3 [drawing 303] ) = < 10 nM

---

Assay: Pharmacokinetics study in CD-1 mice (IV, PO)
Format: in vivo
Conditions: CD-1, mouse, plasma, iv, 1 mg/kg, IV 1 mg/kg, time point 2, individual animals A-D
Measured quantity: concentration at 2 h
Write your answer as a measured quantity: the number, then the unit.

Reported concentration at 2 h of Cc1ccc(F)cc1C[C@H](C)Nc1cc[nH]c(=O)c1-c1nc2cc3c(cc2[nH]1)C(=O)N(CCN1CCCC1)C3 [compound (II)] : 10.4 ng/mL

---

Test: Liver microsome stability, Human LM-P1 / HLM
Format: in vitro ADME
Conditions: human, liver microsomes
Measured quantity: half-life

Consider the reported half-life for these compounds:
Compound: Cc1ccc(F)cc1C[C@H](C)Nc1cc[nH]c(=O)c1-c1nc2cc3c(cc2[nH]1)C(=O)N(CCN1CCCC1)C3 [drawing 368]
half-life: > 0.333 h

Compound: C[C@@H](Cc1c(F)c(F)cc(F)c1F)Nc1cc[nH]c(=O)c1-c1nc2cc3c(cc2[nH]1)CN(CCN1CCCC1)C3=O [drawing 370]
half-life: > 2 h

Next compound, half-life to be filled in.
Field half-life (entry C[C@@H](Cc1cc(F)cc(F)c1F)Nc1cc[nH]c(=O)c1-c1nc2cc3c(cc2[nH]1)CN(CCN1CCCC1)C3=O [drawing 369] ) reads > 2 h

---

Experiment: Pharmacokinetics study in CD-1 mice (IV, PO)
Type: in vivo
Conditions: CD-1, mouse, plasma, iv, 1 mg/kg, IV 1 mg/kg, time point 0.5, individual animals A-D
Measured quantity: concentration at 0.5 h
Answer as a quantity: numeral, then unit.

# compound "Cc1ccc(F)cc1C[C@H](C)Nc1cc[nH]c(=O)c1-c1nc2cc3c(cc2[nH]1)C(=O)N(CCN1CCCC1)C3" ; its concentration at 0.5 h = 36.8 ng/mL

---

Target: CYP1A2 (Homo sapiens, UniProt P05177)
Construct: purchased Cerep (contract assay, ADMET Study 13170)
Sequence (P05177 whole entry): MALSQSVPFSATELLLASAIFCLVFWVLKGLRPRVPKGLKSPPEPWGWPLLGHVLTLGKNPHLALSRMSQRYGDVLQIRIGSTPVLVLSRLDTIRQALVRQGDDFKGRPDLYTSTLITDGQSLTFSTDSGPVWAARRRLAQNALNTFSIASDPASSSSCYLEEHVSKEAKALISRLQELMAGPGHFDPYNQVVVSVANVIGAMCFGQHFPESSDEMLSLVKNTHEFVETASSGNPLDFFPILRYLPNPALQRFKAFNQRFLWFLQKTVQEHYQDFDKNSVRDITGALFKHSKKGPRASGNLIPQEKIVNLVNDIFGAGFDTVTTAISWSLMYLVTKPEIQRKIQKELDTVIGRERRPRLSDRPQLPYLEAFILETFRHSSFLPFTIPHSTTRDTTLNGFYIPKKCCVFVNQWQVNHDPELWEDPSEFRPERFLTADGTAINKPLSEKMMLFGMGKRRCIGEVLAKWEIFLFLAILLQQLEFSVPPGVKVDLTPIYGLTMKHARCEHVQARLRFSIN
Assay: CYP1A2 Inhibition (recombinant, CEC substrate)
Format: in vitro ADME
Conditions: recombinant CYP1A2, probe CEC, 5.0E−06 M; Table 5B individual results; read-out: CYP1A2 % Inhibition of Control Values, 1st/2nd/3rd
Measured quantity: activity at 5 µM (%)
All answers are understood in %, so give the number only.

Looking up "Cc1ccc(F)cc1C[C@H](C)Nc1cc[nH]c(=O)c1-c1nc2cc3c(cc2[nH]1)C(=O)N(CCN1CCCC1)C3" , I found its activity at 5 µM recorded as 92.1
